# experimental-system: Alpha2D adrenergic receptor (Rattus norvegicus, UniProt P22909)
# Construct: aliquots of the synaptic membrane fraction; from tissue; host or cells: rat cerebral cortex, synaptic membrane fraction
# Sequence (P22909 whole entry): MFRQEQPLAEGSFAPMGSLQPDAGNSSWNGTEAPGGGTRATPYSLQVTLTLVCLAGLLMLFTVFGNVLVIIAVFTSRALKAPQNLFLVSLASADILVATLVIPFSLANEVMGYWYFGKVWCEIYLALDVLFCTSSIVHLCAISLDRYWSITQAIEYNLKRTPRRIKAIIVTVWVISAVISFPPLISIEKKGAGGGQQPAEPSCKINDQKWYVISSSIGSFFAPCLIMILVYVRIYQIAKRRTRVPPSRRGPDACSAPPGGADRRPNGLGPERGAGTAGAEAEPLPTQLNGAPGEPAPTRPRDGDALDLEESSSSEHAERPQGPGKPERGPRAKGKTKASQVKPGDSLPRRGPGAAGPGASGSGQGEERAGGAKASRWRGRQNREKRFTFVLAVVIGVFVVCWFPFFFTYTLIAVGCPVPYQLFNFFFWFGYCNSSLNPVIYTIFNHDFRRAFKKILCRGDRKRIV
# experimental-protocol: Alpha2D adrenergic receptor binding assay (3H-paraaminoclonidine, rat cortex synaptic membranes)
# Design: species or system Wistar rats
# measurement-conditions: 3H-paraaminoclonidine, rat cortex, 25° C, 20 min; read-out: Ki
assay-readout: Ki (nM)
Kindly answer with a numeric value in nM, unit omitted.

- compound: "Cc1sccc1C(C)c1c[nH]cn1 (centres unmarked)"
  unit-string: "nM"
  Ki: 2.3
- compound: "CCc1sccc1C(C)c1c[nH]cn1 (centres unmarked)"
  unit-string: "nM"
  Ki: 1.1
- compound: "C=C(c1c[nH]cn1)c1csc(Br)c1Br"
  unit-string: "nM"
  Ki: 0.98

Reported Ki for CC(c1ccsc1)c1c[nH]cn1 (centres unmarked) was 2.5

Reported Ki for Cc1cc(C(C)c2c[nH]cn2)c(C)s1 (centres unmarked) was 6.1

Reported Ki for CCc1cc(C(C)c2c[nH]cn2)c(CC)s1 (centres unmarked) was 11.4

Reported Ki for "c1nc(Cc2ccsc2)c[nH]1" was 3.1

Reported Ki for Cc1csc(C)c1C(C)c1c[nH]cn1 (centres unmarked) was 33.5
